Assayed target: chimpanzee GPR105 protein (Pan troglodytes)
Sequence (A0A2J8P2M1 1-338): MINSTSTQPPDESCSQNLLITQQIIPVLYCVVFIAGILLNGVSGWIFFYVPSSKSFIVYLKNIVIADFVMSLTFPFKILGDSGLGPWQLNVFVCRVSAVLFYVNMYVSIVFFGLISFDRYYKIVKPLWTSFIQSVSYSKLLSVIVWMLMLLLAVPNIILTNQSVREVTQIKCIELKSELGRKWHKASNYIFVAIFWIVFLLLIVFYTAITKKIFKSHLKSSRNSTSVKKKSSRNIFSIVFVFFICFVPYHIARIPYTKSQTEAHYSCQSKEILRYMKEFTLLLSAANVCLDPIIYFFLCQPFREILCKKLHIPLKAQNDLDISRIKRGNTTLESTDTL
Test details: Cell-Binding Assay: inhibition of UDP-glucose-induced Ca2+ signaling (FLIPR) in HEK/GPR105/Gqi5 cells
Assay context: HEK cells expressing chimpanzee GPR105 and Gqi5, UDP-glucose agonist at EC80
pIC50: −log10 of the molar value.
Measured metric: pIC50

[[record]]
chemical_smiles = "CCc1cc(NC(=O)N2CCc3nc(-c4cccnc4)nc(-c4ccccc4C)c3C2)cc(-c2cn(C)cn2)c1"
assayed_target = "chimpanzee GPR105 protein (Pan troglodytes)"
measured_metric = "pIC50"
test_value = 8.25


a: CCc1cc(NC(=O)N2CCc3nc(-c4cccnc4)nc(-c4ccccc4C)c3C2)cc(Oc2ccccc2)c1
b: CCc1cccc(NC(=O)N2CCc3nc(-c4cscc4C)nc(-c4ccccc4C)c3C2)c1
c: CCc1cc(NC(=O)N2CCc3nc(-c4cccnc4)nc(-c4ccccc4C)c3C2)cc(-c2ccc(C(=O)O)cc2)c1
QUERY: Ranking field: pIC50; order: falling. Sort and list the labels as requested.
RESULT: c, a, b
(c: 8.40, a: 8.09, b: 7.19)
